# Test system: MDR1 (P-gp)
# TEST_DESCRIPTION: in vitro
# ASSAY_CONTEXT: dog, MDCK-MDR1, pH 7.4
The label 1.0 is reserved for Papp A→B at 120 min, 5 μM strictly under 1 ×10⁻⁶ cm/s; 0.0 covers values equal to or above it.

Use these answered entries as a reference point.
CN(c1ccc(-c2cc(F)c(-n3ccnn3)cc2O)nn1)[C@@H]1C[C@H]2CC[C@@H]([C@@H]1F)N2C [Compound 103A] ... 0.0
CN(c1ccc(-c2cc3occc(=O)c3cc2O)nn1)[C@H]1C[C@@H]2CC[C@H]([C@H]1F)N2C (single isomer, unassigned) [Compound 94B] ... 0.0

Prompt: Hello, I'm reviewing records and need to know if Papp A→B at 120 min, 5 μM of CN(c1ccc(-c2cc3cc[nH]c(=O)c3s2)nn1)[C@@H]1C[C@H]2CC[C@H](N2)[C@@H]1F (single isomer, unassigned) [Compound 66A] is below 1 ×10⁻⁶ cm/s. Could you check?
Response: 1.0

Prompt: Hello, I'm reviewing records and need to know if Papp A→B at 120 min, 5 μM of CN(c1ccc(-c2cc3ncn(CC(F)(F)F)c(=O)c3cc2O)nn1)[C@H]1C[C@@H]2CCC[C@H]([C@H]1F)N2C (single isomer, unassigned) [Compound 109B] is below 1 ×10⁻⁶ cm/s. Could you check?
Response: 0.0

Prompt: Hello, I'm reviewing records and need to know if Papp A→B at 120 min, 5 μM of O=C(c1cc2cc(O)c(-c3ccc(N(C4CC4)[C@@H]4C[C@H]5CC[C@H](N5)[C@@H]4F)nn3)cc2o1)N1CCC1 [Compound 57A] is below 1 ×10⁻⁶ cm/s. Could you check?
Response: 1.0

###

# Test system: MDR1
# TEST_DESCRIPTION: in vitro
# ASSAY_CONTEXT: dog, MDCK-MDR1, pH 7.4
READOUT_KIND: efflux ratio at 120 min, 5 μM
Numbers only.

Here is how some compounds turned out for efflux ratio at 120 min, 5 μM.
CCc1cn(-c2ccc(-c3ccc(N(C)[C@H]4C[C@@H]5CC(F)(F)[C@H](C4)N5)nn3)c(O)c2)nn1 (single isomer, unassigned) [Compound 64B] ... 10
CN(c1ccc(-c2cc(C#N)ccc2O)nn1)[C@@H]1C[C@H]2CC[C@H](N2)[C@@H]1F (single isomer, unassigned) [Compound 70A] ... 19
CCc1cn(-c2ccc(-c3ccc(N(C)[C@@H]4C[C@H]5CC(F)(F)[C@@H](C4)N5)nn3)c(O)c2)nn1 (single isomer, unassigned) [Compound 64A] ... 7
CN(c1ccc(-c2cc3ncn(CC(F)(F)F)c(=O)c3cc2O)nn1)[C@H]1C[C@@H]2CC[C@H]([C@H]1F)N2C (single isomer, unassigned) [Compound 108B] ... 61

Recorded result, CN(C)C(=O)c1cc2cc(O)c(-c3ccc(N(C)[C@@H]4C[C@H]5CC[C@@H]([C@@H]4F)N5C)nn3)cc2o1 (single isomer, unassigned) [Compound 106A] , efflux ratio at 120 min, 5 μM: 34

###

# Test system: MDR1-MDCK cell monolayers
# TEST_DESCRIPTION: Blood-brain-barrier (BBB) penetration potential via MDCK-MDR1 permeability assay
# ASSAY_CONTEXT: B-A direction
READOUT_KIND: MDCK-MDR1: % Recov B-A (%)
Answers are plain numbers, in %.

Here is how some compounds turned out for MDCK-MDR1: % Recov B-A.
CN(c1ccc(-c2cc3ncccc3cc2O)nn1)[C@@H]1C[C@H]2CC[C@H](N2)[C@@H]1F [Compound 73A] ... 91
CN(c1ccc(-c2cc3c(F)cn(C)c(=O)c3cc2O)nn1)[C@H]1C[C@@H]2CC[C@@H](N2)[C@H]1F [Compound 54B] ... 107
CN(c1ccc(-c2ccc(-c3cc[nH]n3)cc2O)nn1)[C@@H]1C[C@H]2CC[C@H](N2)[C@@H]1F (single isomer, unassigned) [Compound 33A] ... 105
CN(c1ccc(-c2cc3ncn(C)c(=O)c3cc2O)nn1)[C@@H]1C[C@H]2CC[C@H](N2)[C@@H]1F [Compound 51A] ... 86
Cc1nc2cc(O)c(-c3ccc(N(C)[C@H]4C[C@@H]5CC[C@@H](N5)[C@H]4F)nn3)cc2o1 (single isomer, unassigned) [Compound 40B] ... 99

// next item, MDCK-MDR1: % Recov B-A requested
Recorded result, CN(c1ccc(-c2ccc(C3=CCCC3)cc2O)nn1)[C@H]1C[C@@H]2CC[C@@H](N2)[C@H]1F [Compound 34B] , MDCK-MDR1: % Recov B-A: 48

These entries and their values trace back to patent US12509460B2.
